# System: HCT-116 colon
# assay protocol: NCI-60 one-dose screen, 48 h (100 = growth as untreated, 0 = no growth, -100 = all killed)
# settings: 10 µM unless noted
The panel holds about 83,000 compounds, 20% with a hit somewhere; the sample as a whole holds those more often.
Documented growth across a set of compounds

{"columns": ["compound", "growth [%]"],
 "data": [
  ["COc1ccc(Cn2cc(C(=O)Nc3cccnc3Nc3ccccc3)nn2)cc1", 103],
  ["C=C[C@]1(C)C=C2CC[C@@H]3C(C)(C)C(=O)CC[C@@]3(C)[C@@H]2CC1", 103],
  ["N#C/C(=N\\Nc1ccc(Cl)cc1)C(=O)Nc1cc(-c2ccccc2)nn1-c1ccccc1", 8.26],
  ["O=C(/C=C/c1ccc(F)cc1)Nc1ncc(Cc2ccc(F)cc2)s1", 29.4],
  ["CC(C)(C)CC(N)=O", 93.6],
  ["CN1CCN(Cc2ccc(NC(=O)c3cccc(C#Cc4c(N)ncc5ccc(F)cc45)c3)cc2C(F)(F)F)CC1", -93.1],
  ["CCCCCCNC(=O)Oc1ccc(/C(=C(/CC)Cc2ccccc2)c2ccc(OCCCN(C)C)cc2)cc1", 39.8],
  ["COc1ccc(-c2cc(-c3cccc(Cl)c3)c(C#N)c(=O)[nH]2)c(OC)c1", 96.9],
  ["CCCN1C(=O)/C(=c2\\sc3n(c2=O)C2C(NN=3)N(CC)C(=O)N2CC)c2ccccc21 (stereo not given)", 7.6],
  ["Cc1ccc(/C=C/c2c(C(=O)/C=C/c3ccccc3)c(C)nc3ccccc23)cc1", -54.7]
]}

Data origin, for the record: PubChem BioAssay (NCI)
